targetEntity: hepatitis C virus RNA dependant polymerase (NS5B) (Hepatitis C virus genotype 1b)
Sequence (P26663 2420-3010): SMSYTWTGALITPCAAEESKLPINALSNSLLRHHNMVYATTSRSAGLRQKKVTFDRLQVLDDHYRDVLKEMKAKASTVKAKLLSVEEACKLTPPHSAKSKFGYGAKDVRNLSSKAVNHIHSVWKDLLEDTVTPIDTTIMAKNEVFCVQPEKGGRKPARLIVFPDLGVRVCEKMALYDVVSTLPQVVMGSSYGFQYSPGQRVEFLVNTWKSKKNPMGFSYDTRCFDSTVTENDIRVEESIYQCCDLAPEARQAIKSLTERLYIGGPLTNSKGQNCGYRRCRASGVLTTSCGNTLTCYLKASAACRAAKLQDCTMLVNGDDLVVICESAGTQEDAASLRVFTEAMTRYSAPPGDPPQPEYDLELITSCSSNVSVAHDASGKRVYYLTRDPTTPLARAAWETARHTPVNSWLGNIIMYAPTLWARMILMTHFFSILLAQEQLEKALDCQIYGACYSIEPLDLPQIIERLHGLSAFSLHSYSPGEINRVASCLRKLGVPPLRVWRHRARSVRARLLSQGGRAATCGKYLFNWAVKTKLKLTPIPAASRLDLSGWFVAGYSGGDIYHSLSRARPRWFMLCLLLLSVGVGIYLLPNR
experiment: Inhibition of NS5B RNA dependent RNA polymerase activity
Type: biochemical
conditionDescription: Table 4; class ranges
Recorded IC50, one value per entry.

Some entries whose results are on file:
compound | result
CN1CCN(C(=O)Cn2c(-c3ccoc3)c(C3CCCCC3)c3ccc(C(=O)NCc4cccnc4)cc32)CC1 | 200 to 1000 nM
CNC(=O)c1ccc2c(C3CCCCC3)c(-c3ccoc3)n(CC(=O)N3CCN(C)CC3)c2c1 | 200 to 1000 nM
CN1CCN(C(=O)Cn2c(-c3ccoc3)c(C3CCCCC3)c3ccc(C(=O)NCc4ccc(F)cc4)cc32)CC1 | 200 to 1000 nM
CN1CCN(C(=O)Cn2c(-c3ccoc3)c(C3CCCCC3)c3ccc(C(=O)NC4CC4c4ccccc4)cc32)CC1 (racemic) | 200 to 1000 nM
CN1CCN(C(=O)Cn2c(-c3ccoc3)c(C3CCCCC3)c3ccc(C(=O)NCCc4ccccn4)cc32)CC1 | 200 to 1000 nM

Input line: Fill: IC50 (hepatitis C virus RNA dependant polymerase (NS5B) (Hepatitis C virus genotype 1b)) for this compound COc1ccc(CNC(=O)c2ccc3c(C4CCCCC4)c(-c4ccoc4)n(CC(=O)N4CCOCC4)c3c2)cc1OC
Output line: < 200 nM

Input line: Fill: IC50 (hepatitis C virus RNA dependant polymerase (NS5B) (Hepatitis C virus genotype 1b)) for this compound CCc1nc(C2(NC(=O)c3ccc4c(C5CCCCC5)c(-c5ccoc5)n(CC(=O)N5CCC(N6CCCC6)CC5)c4c3)CCC2)cs1
Output line: < 200 nM

Input line: Fill: IC50 (hepatitis C virus RNA dependant polymerase (NS5B) (Hepatitis C virus genotype 1b)) for this compound NC(=O)C1(NC(=O)c2ccc3c(C4CCCCC4)c(-c4ccoc4)n(CC(=O)N4CCOCC4)c3c2)CCC1
Output line: < 200 nM

###

targetEntity: UniProt:P26663
experiment: Inhibition of NS5B RNA dependent RNA polymerase activity
Format: biochemical
conditionDescription: Table 4; class ranges
metricName: IC50

Some entries whose results are on file:
molecule | result
CN(C)C(=O)Cn1c(-c2ccoc2)c(C2CCCCC2)c2ccc(C(=O)NCc3ccccc3)cc21 [Example 4054] | 200 to 1000 nM
COc1ccc([C@@H](C)NC(=O)c2ccc3c(C4CCCCC4)c(-c4ccoc4)n(CC(=O)N4CCN(C)CC4)c3c2)cc1 [Example 4043] | < 200 nM
CC(C)(NC(=O)c1ccc2c(C3CCCCC3)c(-c3ccoc3)n(CC(=O)N3CCOCC3)c2c1)C(N)=O [Example 4077] | < 200 nM
CN1CCN(C(=O)Cn2c(-c3ccoc3)c(C3CCCCC3)c3ccc(C(=O)NCCc4ccccc4)cc32)CC1 [Example 4026] | 1000 to 10000 nM
O=C(NC1(C(=O)O)COCOC1)c1ccc2c(C3CCCCC3)c(-c3ccoc3)n(CC(=O)N3CCOCC3)c2c1 [Example 4083] | < 200 nM

Input line: For the molecule COc1ccc(CNC(=O)c2ccc3c(C4CCCCC4)c(-c4ccoc4)n(CC(=O)N4CCN(C)CC4)c3c2)cc1OC [Example 4003] , give its reported IC50.
Output line: < 200 nM

Input line: For the molecule O=C(NS(=O)(=O)c1ccccc1)c1ccc2c(C3CCCCC3)c(-c3ccoc3)n(CC(=O)N3CCC(N4CCCC4)CC3)c2c1 [Example 4110] , give its reported IC50.
Output line: < 200 nM

Input line: For the molecule COC(=O)C1(NC(=O)c2ccc3c(C4CCCCC4)c(-c4ccoc4)n(CC(=O)N4CCOCC4)c3c2)COCOC1 [Example 4080] , give its reported IC50.
Output line: 200 to 1000 nM

Input line: For the molecule COc1cc(CNC(=O)c2ccc3c(C4CCCCC4)c(-c4ccoc4)n(CC(=O)N4CCN(C)CC4)c3c2)ccc1O [Example 4030] , give its reported IC50.
Output line: < 200 nM

Input line: For the molecule CN1CCN(C(=O)Cn2c(-c3ccoc3)c(C3CCCCC3)c3ccc(C(=O)NC4(CO)CCCC4)cc32)CC1 [Example 4027] , give its reported IC50.
Output line: 200 to 1000 nM

Input line: For the molecule CN1CCN(C(=O)Cn2c(-c3ccoc3)c(C3CCCCC3)c3ccc(C(=O)NCc4ccc5c(c4)OCO5)cc32)CC1 [Example 4013] , give its reported IC50.
Output line: 200 to 1000 nM

Input line: For the molecule O=C(O)C=Cc1ccc2nc(C3(NC(=O)c4ccc5c(C6CCCC6)c(-c6ccoc6)n(CC(=O)N6CCOCC6)c5c4)CCC3)[nH]c2c1 [Example 4070] , give its reported IC50.
Output line: < 200 nM

Input line: For the molecule O=C(NC(=O)c1ccc2c(C3CCCCC3)c(-c3ccoc3)n(CC(=O)N3CCOCC3)c2c1)c1ccccc1 [Example 4065] , give its reported IC50.
Output line: 1000 to 10000 nM

Input line: For the molecule O=C(NCCc1ccncc1)c1ccc2c(C3CCCCC3)c(-c3ccoc3)n(CC(=O)N3CCOCC3)c2c1 [Example 4050] , give its reported IC50.
Output line: 200 to 1000 nM

All figures here come from patent US7888363B2.
